The measured values listed here are drawn from ChEMBL document CHEMBL1649574.

Test system: Staphylococcus aureus
procedure-details: Antimicrobial activity against SCCmec type II vancomycin-intermediate Staphylococcus aureus isolate 6zjsau7 by agar dilution method
Assay type: functional
# reported MIC; entries follow
Record the value in µg/mL, omitting the unit from your answer.

compound	assay-result
CO[C@H]1/C=C/O[C@@]2(C)Oc3c(C)c(O)c4c(O)c(c(/C=N/N5CCN(C)CC5)c(O)c4c3C2=O)NC(=O)/C(C)=C\C=C\[C@H](C)[C@H](O)[C@@H](C)[C@@H](O)[C@@H](C)[C@H](OC(C)=O)[C@@H]1C [RIFAMPIN]	0.008
CC(=O)NC[C@H]1CN(c2ccc(N3CCOCC3)c(F)c2)C(=O)O1 [LINEZOLID]	1

# next compound below
Readout MIC for Nc1nc(/C(=N/O)C(=O)N[C@@H]2C(=O)N3C(C(=O)O)=C(/C=C4\CCN([C@@H]5CCNC5)C4=O)CS[C@H]23)ns1 [CEFTOBIPROLE] , test system Staphylococcus aureus, was 4

====

# reported MIC; entries follow
Test system: Staphylococcus aureus
procedure-details: Antimicrobial activity against SCCmec type II vancomycin-intermediate Staphylococcus aureus isolate sh06024 by agar dilution method
Format: functional

Example results:
molecular-string	target-desc	assay-endpoint	assay-result
C[C@H]1COc2c(N3CCN(C)CC3)c(F)cc3c(=O)c(C(=O)O)cn1c23.C[C@H]1COc2c(N3CCN(C)CC3)c(F)cc3c(=O)c(C(=O)O)cn1c23.O	Staphylococcus aureus	MIC	8 µg/mL
Cc1onc(-c2ccccc2)c1C(=O)N[C@@H]1C(=O)N2[C@@H]1SC(C)(C)[C@@H]2C(=O)O	Staphylococcus aureus	MIC	> 64 µg/mL
CN(C)c1cc(NC(=O)CNC(C)(C)C)c(O)c2c1C[C@H]1C[C@H]3[C@H](N(C)C)C(O)=C(C(N)=O)C(=O)[C@@]3(O)C(O)=C1C2=O	Staphylococcus aureus	MIC	0.125 µg/mL
CC[C@H]1OC(=O)[C@H](C)[C@@H](O[C@H]2C[C@@](C)(OC)[C@@H](O)[C@H](C)O2)[C@H](C)[C@@H](O[C@@H]2O[C@H](C)C[C@H](N(C)C)[C@H]2O)[C@](C)(O)C[C@@H](C)C(=O)[C@H](C)[C@@H](O)[C@]1(C)O	Staphylococcus aureus	MIC	> 256 µg/mL
CC[C@H]1OC(=O)[C@H](C)[C@@H](O[C@H]2C[C@@](C)(OC)[C@@H](O)[C@H](C)O2)[C@H](C)[C@@H](O[C@@H]2O[C@H](C)C[C@H](N(C)C)[C@H]2O)[C@](C)(OC)C[C@@H](C)C(=O)[C@H](C)[C@@H](O)[C@]1(C)O	Staphylococcus aureus	MIC	32 µg/mL

Readout MIC for CC(=O)NC[C@H]1CN(c2ccc(N3CCOCC3)c(F)c2)C(=O)O1 , test system Staphylococcus aureus, was 0.5 µg/mL

Readout MIC for Nc1nc(/C(=N/O)C(=O)N[C@@H]2C(=O)N3C(C(=O)O)=C(/C=C4\CCN([C@@H]5CCNC5)C4=O)CS[C@H]23)ns1 , test system Staphylococcus aureus, was 2 µg/mL

Readout MIC for CO[C@H]1/C=C/O[C@@]2(C)Oc3c(C)c(O)c4c(O)c(c(/C=N/N5CCN(C)CC5)c(O)c4c3C2=O)NC(=O)/C(C)=C\C=C\[C@H](C)[C@H](O)[C@@H](C)[C@@H](O)[C@@H](C)[C@H](OC(C)=O)[C@@H]1C , test system Staphylococcus aureus, was > 256 µg/mL
